Consider the following compounds; for each one, report its IC (TGI).
system: OVCAR-3; test: cells; settings: Homo sapiens, OVCAR-3, read-out: TGI

Examples with answers:
> print(dat)
                            compound.smiles  parameter.measured  reported.value
1  COc1cc(/C=C/C(=O)c2sc(=S)[nH]c2C)cc(OC)c1OC            IC (TGI)         6.92 µM
2  Cc1[nH]c(=S)sc1C(=O)/C=C/c1cccc([N+](=O)[O-])c1            IC (TGI)         6.46 µM
3     Cc1[nH]c(=S)sc1C(=O)/C=C/c1ccc(Br)cc1            IC (TGI)         4.27 µM
4      Cc1[nH]c(=S)sc1C(=O)/C=C/c1ccc(F)cc1            IC (TGI)         6.81 µM
5     Cc1[nH]c(=S)sc1C(=O)/C=C/c1ccc(Cl)cc1            IC (TGI)         10.7 µM
6     Cc1[nH]c(=S)sc1C(=O)/C=C/c1cccc(Cl)c1            IC (TGI)         6.03 µM

Continue with the compound presented below.
Recorded IC (TGI) (compound Cc1[nH]c(=S)sc1C(=O)/C=C/c1ccc([N+](=O)[O-])cc1 ): 5.28 µM
